- system: HLA A*0201 (Homo sapiens, UniProt P04439, D140Y/D185E/D98H/E176V/E277Q/G131W/G231S/I119V/I121R/I166T/I218V/L300P/L318F/N151K/N90K/P208A/P217A/Q86G/Q94H/R138H/R169H/T345S)
- experiment.notes: HLA class I binding assay (cell-free competition, fluorescence polarization)
Where a SMILES comes first, the peptide text is derived from it.
metric.name: IC50

* CC(C)C[C@H](NC(=O)[C@@H](N)CC(N)=O)C(=O)N[C@@H](Cc1ccccc1)C(=O)N[C@@H](CCC(=O)O)C(=O)N[C@@H](Cc1c[nH]c2ccccc12)C(=O)N[C@@H](CO)C(=O)N[C@@H](CCCCN)C(=O)N[C@H](C(=O)N[C@H](C(=O)O)C(C)C)[C@@H](C)O (H-NLFEWSKTV-OH) | 1.62 µM

// lookup IC50 for CC[C@H](C)[C@H](NC(=O)[C@@H](NC(=O)[C@@H](NC(=O)[C@H](CCCCN)NC(=O)[C@H](CC(N)=O)NC(=O)[C@H](CCCCN)NC(=O)[C@H](CC(N)=O)NC(=O)[C@@H](NC(=O)[C@@H](NC(=O)[C@@H](N)Cc1ccc(O)cc1)[C@@H](C)CC)[C@@H](C)O)C(C)C)[C@@H](C)O)C(=O)O (H-YITNKNKVTI-OH; N-terminus assumed)
> 1000 µM

---

Some compounds, each annotated with its measured pIC50.
- system: HLA A*0301 (Homo sapiens)
Where a SMILES comes first, the peptide text is derived from it.
# reply with the number alone; pIC50 is -log10 of concentration in mol/L

Worked cases, pIC50 given:
• CC(C)C[C@H](NC(=O)[C@H](Cc1ccccc1)NC(=O)[C@H](CO)NC(=O)[C@H](Cc1ccccc1)NC(=O)[C@H](CS)NC(=O)[C@@H](N)Cc1ccccc1)C(=O)N[C@@H](CCCCN)C(=O)N[C@@H](CO)C(=O)N[C@@H](CO)C(=O)N[C@@H](CCCCN)C(=O)O (H-FCFSFLKSSK-OH) = 5.04
• CC[C@H](C)[C@H](NC(=O)[C@H](Cc1ccccc1)NC(=O)[C@H](CO)NC(=O)[C@H](CO)NC(=O)[C@@H](NC(=O)[C@@H](N)CCCCN)[C@@H](C)CC)C(=O)N[C@@H](CC(N)=O)C(=O)N[C@@H](CCC(N)=O)C(=O)N[C@@H](CCCNC(=N)N)C(=O)N[C@@H](CCCCN)C(=O)O (H-KISSFINQRK-OH) = 6.50
• CSCC[C@H](NC(=O)[C@H](CC(N)=O)NC(=O)[C@H](CCC(N)=O)NC(=O)[C@H](CC(N)=O)NC(=O)[C@H](C)NC(=O)[C@H](CCSC)NC(=O)[C@@H](N)[C@@H](C)O)C(=O)N[C@@H](CC(N)=O)C(=O)N[C@@H](Cc1ccc(O)cc1)C(=O)O (H-TMANQNMNY-OH) = 6.03
• CC[C@H](C)[C@H](NC(=O)[C@@H]1CCCN1C(=O)[C@H](Cc1ccc(O)cc1)NC(=O)[C@H](CC(=O)O)NC(=O)[C@H](Cc1ccccc1)NC(=O)[C@@H](NC(=O)[C@@H](N)CCC(N)=O)C(C)C)C(=O)N[C@@H](CCC(=O)O)C(=O)N[C@@H](CCCCN)C(=O)O (H-QVFDYPIEK-OH) = 5.80
• CSCC[C@H](N)C(=O)N[C@@H](CC(=O)O)C(=O)N[C@@H](Cc1ccccc1)C(=O)N1CCC[C@H]1C(=O)N[C@@H](CCCCN)C(=O)N[C@@H](CC(C)C)C(=O)N[C@@H](CC(C)C)C(=O)N[C@@H](CC(N)=O)C(=O)N[C@@H](CCCCN)C(=O)O (H-MDFPKLLNK-OH) = 5.68

// lookup pIC50 for CC[C@H](C)[C@H](NC(=O)[C@H](CO)NC(=O)[C@H](Cc1ccccc1)NC(=O)[C@@H](NC(=O)[C@H](CO)NC(=O)CNC(=O)[C@H](CO)NC(=O)[C@H](CO)NC(=O)[C@@H](N)CCCNC(=N)N)[C@@H](C)O)C(=O)N[C@@H](CCCCN)C(=O)O (H-RSSGSTFSIK-OH)
6.49
